Molecular target: AP C3-convertase (C3bBb) (Homo sapiens (Human)) (UniProt P01024)
parameter: AP-DAA IC50

Enquiry: Name the recorded AP-DAA IC50 of the item D2D3M3M4 (Multi-4) (protein) CEVPTRLNSASLKQPYITQNYFPVGTVVEYECRPGYRREPSLSPKLTCLQNLKWSTAVEFCKKKSCPNPGEIRNGQIDVPGGILFGATISFSCNTGYKLIGKTSSFCLISGSSVQWSDKLPICEKVLCTPPPKIKNGKHTFSEVEVFEYLDAVTYSCDPAPGPDPFSLIGESTIYCGDNSVWSRAAPECKVVKCRFPVVENGKQISGFGKKFYYKATVMFECDKGFYLDGSDTIVCDSNSTWDPPVPKCLKVL in your answer.
Return: > 10 nM
